What IC50 was measured for each of the following?
SYSTEM_TESTED: CRTH2 (Homo sapiens)
Sequence (Q9Y5Y4 whole entry): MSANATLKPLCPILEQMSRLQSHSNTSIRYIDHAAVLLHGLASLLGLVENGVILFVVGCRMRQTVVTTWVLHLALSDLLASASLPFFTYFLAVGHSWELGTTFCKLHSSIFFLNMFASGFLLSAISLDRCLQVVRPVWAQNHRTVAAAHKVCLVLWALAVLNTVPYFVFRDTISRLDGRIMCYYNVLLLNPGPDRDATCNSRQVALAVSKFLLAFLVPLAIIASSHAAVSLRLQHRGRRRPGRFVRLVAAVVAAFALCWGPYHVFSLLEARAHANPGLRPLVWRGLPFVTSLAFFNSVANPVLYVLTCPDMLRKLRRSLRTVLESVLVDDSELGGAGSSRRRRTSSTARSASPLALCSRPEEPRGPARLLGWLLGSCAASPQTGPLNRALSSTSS
TEST_DETAILS: Human whole blood CD11b antagonist assay (CD11b expression in eosinophils)
Format: cell-based
Set-up: endogenous in cells; host or cells: eosinophils in human whole blood
EXPERIMENTAL_SETUP: challenged with 10 nM 15R-Methyl-PGD2, read-out: CD11b Antag IC50(nM) [HuEos-HuWB-vs10nM15R]

**Query** What IC50 value was documented for this compound, Cc1cc(C(=O)c2ccccc2S(=O)(=O)N2CCOCC2)c(C)n1CC(=O)O ?
**Result** 100 to 500 nM

**Query** What IC50 value was documented for this compound, Cc1c(Cc2ccccc2S(=O)(=O)c2ccccc2)cc(-c2cccnc2)n1CC(=O)O ?
**Result** 5 to 100 nM

**Query** What IC50 value was documented for this compound, Cc1c(Cc2ccccc2S(=O)(=O)c2ccccc2)cc(-c2ccc(F)cc2)n1CC(=O)O ?
**Result** 100 to 500 nM

**Query** What IC50 value was documented for this compound, Cc1c(Cc2ccccc2S(=O)(=O)c2ccccc2)c(C#N)c(-c2ccccc2)n1CC(=O)O ?
**Result** 5 to 100 nM

**Query** What IC50 value was documented for this compound, CC(=O)c1c(Cc2ccccc2S(=O)(=O)N2CCCC2)c(C)n(CC(=O)O)c1C ?
**Result** 5 to 100 nM

**Query** What IC50 value was documented for this compound, Cc1c(Cc2ccccc2S(=O)(=O)N2CCCC2)c(-c2ccccc2)c(C)n1CC(=O)O ?
**Result** 5 to 100 nM

**Query** What IC50 value was documented for this compound, Cc1cc(Sc2ccccc2S(=O)(=O)N2CCOCC2)c(C)n1CC(=O)O ?
**Result** 5 to 100 nM

**Query** What IC50 value was documented for this compound, Cc1c(Cc2ccccc2S(=O)(=O)c2ccccc2)cc(-c2cccc(F)c2)n1CC(=O)O ?
**Result** 5 to 100 nM

**Query** What IC50 value was documented for this compound, Cc1c(Cc2ccccc2S(=O)(=O)c2ccccc2)cc(-c2ccccc2)n1CC(=O)O ?
**Result** 100 to 500 nM

**Query** What IC50 value was documented for this compound, Cc1c(Cc2ccccc2S(=O)(=O)c2ccccc2)cc(-c2ccccn2)n1CC(=O)O ?
**Result** 100 to 500 nM

**Query** What IC50 value was documented for this compound, Cc1c(C#N)c(CC(=O)O)c(C)n1Cc1ccccc1S(=O)(=O)N1CCCC1 ?
**Result** > 500 nM

**Query** What IC50 value was documented for this compound, CCOC(=O)Cn1c(C)c(C#N)c(Cc2ccccc2S(=O)(=O)N2CCCC2)c1C ?
**Result** > 500 nM

**Query** What IC50 value was documented for this compound, Cc1c(Cc2ccccc2S(=O)(=O)c2ccccc2)cc(-c2ccccc2C(F)(F)F)n1CC(=O)O ?
**Result** > 500 nM

**Query** What IC50 value was documented for this compound, Cc1c(C#N)c(Cc2ccccc2S(=O)(=O)N2CCCC2)c(C)n1CC(=O)O ?
**Result** 5 to 100 nM

**Query** What IC50 value was documented for this compound, Cc1nn(CC(=O)O)c(C)c1Cc1ccccc1S(=O)(=O)N1CCCC1 ?
**Result** > 500 nM

**Query** What IC50 value was documented for this compound, Cc1c(Cc2ccccc2S(=O)(=O)N2CCOCC2)c(C#N)c(-c2ccccc2)n1CC(=O)O ?
**Result** 5 to 100 nM

**Query** What IC50 value was documented for this compound, Cc1c(Cc2ccccc2S(=O)(=O)N2CCOCC2)cc(-c2ccccc2)n1CC(=O)O ?
**Result** 5 to 100 nM

**Query** What IC50 value was documented for this compound, Cc1c(Cc2ccccc2S(=O)(=O)N2CCCC2)c(C(=O)c2ccccc2)c(C)n1CC(=O)O ?
**Result** 5 to 100 nM

**Query** What IC50 value was documented for this compound, Cc1c(Cc2ccccc2S(=O)(=O)c2ccccc2)cc(-c2ccncc2)n1CC(=O)O ?
**Result** < 5 nM

**Query** What IC50 value was documented for this compound, Cc1c(C#N)c(Cc2ccccc2S(=O)(=O)c2ccccc2)c(C)n1CC(=O)O ?
**Result** 5 to 100 nM

**Query** What IC50 value was documented for this compound, Cc1c(Cc2ccccc2S(=O)(=O)c2ccccc2)c(-c2ccccc2)c(-c2ccccc2)n1CC(=O)O ?
**Result** 5 to 100 nM

**Query** What IC50 value was documented for this compound, CC(=O)c1c(Cc2ccccc2S(=O)(=O)c2ccccc2)c(C)n(CC(=O)O)c1C ?
**Result** 5 to 100 nM

**Query** What IC50 value was documented for this compound, Cc1c(Cc2ccccc2S(=O)(=O)N2CCCC2)c(C#N)c(-c2ccccc2)n1CC(=O)O ?
**Result** 5 to 100 nM

**Query** What IC50 value was documented for this compound, Cc1c(Cc2ccccc2S(=O)(=O)c2ccccc2)cc(-c2ccccc2F)n1CC(=O)O ?
**Result** > 500 nM

**Query** What IC50 value was documented for this compound, Cc1c(Cc2ccccc2S(=O)(=O)c2ccccc2)cc(-c2ccc(C(F)(F)F)cc2)n1CC(=O)O ?
**Result** > 500 nM

**Query** What IC50 value was documented for this compound, Cc1c(C#N)c(Cc2ccccc2S(=O)(=O)N2CCOCC2)c(C)n1CC(=O)O ?
**Result** 5 to 100 nM

**Query** What IC50 value was documented for this compound, Cc1cc(Cc2ccccc2S(=O)(=O)N2CCCC2)c(C)n1CC(=O)O ?
**Result** 5 to 100 nM

**Query** What IC50 value was documented for this compound, Cc1c(Cc2ccccc2S(=O)(=O)N2CCCC2)cc(-c2ccccc2)n1CC(=O)O ?
**Result** 100 to 500 nM

**Query** What IC50 value was documented for this compound, Cc1c(Cc2ccccc2S(=O)(=O)N2CCCC2)c(C#N)c(C2CCCCC2)n1CC(=O)O ?
**Result** 100 to 500 nM
